System: HCT-15 colon
Assay: NCI-60 one-dose screen, 48 h
Settings: 10 µM unless noted
Compounds without any hit were thinned out: in the full panel of roughly 83,000, 20% have a hit. The source made the active and inactive calls. How the source made its calls: active means growth percent below 10; inactive means the rest.
Reply using exactly one outcome from active, inactive

>  <compound>
O=C(CSc1nnc(Cc2ccccc2Nc2c(Cl)cccc2Cl)n1-c1ccccc1)N1N=C(c2ccc3ccccc3c2)CC1c1ccc(Cl)cc1 (centres undefined)

>  <answer label>
inactive

$$$$
>  <compound>
COc1ccc(CC2c3cc(OC)c(OC)cc3CC[N+]2(C)CCC(=O)OCCCCCOC(=O)CC[N+]2(C)CCc3cc(OC)c(OC)cc3C2Cc2ccc(OC)c(OC)c2)cc1OC (centres undefined)

>  <answer label>
inactive

$$$$
>  <compound>
COc1ccc([C@H]2c3[nH]c4ccccc4c3C[C@H]3C(=O)N(CCCCCCC(=O)NO)CC(=O)N23)cc1

>  <answer label>
inactive

$$$$
>  <compound>
CN(C)CC(=O)c1ccc2cc(Br)c3ccccc3c2c1

>  <answer label>
inactive

$$$$
>  <compound>
CC1=C(/C=C/C(C)=C/C=C(C(=O)O)\C(C)=C\C(=O)O)C(C)(C)CCC1

>  <answer label>
inactive

$$$$

[Q] What call does the record list for COC(=O)[C@@H](Cc1c[nH]c2ccccc12)NC(=O)/C=C/c1ccccc1 ?
[A] inactive

Values compiled from PubChem BioAssay (NCI).
